Sourced from patent US6852744B2

concentration at 1 h overview
Experiment: in vivo
Conditions: male, ddy, mouse, po
Assay endpoint: concentration at 1 h (ng/mL)

[[record]]
smiles_input = "Cc1nnsc1C(=O)N[C@H](C(=O)N1CCC[C@H]1C(=O)N[C@@H](Cc1csc2ccccc12)C(=O)C(F)(F)F)C(C)C"
assay_endpoint = "concentration at 1 h"
measured_result = 570

[[record]]
smiles_input = "CC[C@@H](C)[C@H](NC(=O)c1c(C)noc1C)C(=O)N1CCC[C@H]1C(=O)N[C@@H](Cc1csc2ccccc12)C(=O)C(F)(F)F"
assay_endpoint = "concentration at 1 h"
measured_result = 940

[[record]]
smiles_input = "Cc1noc(C)c1C(=O)N[C@H](C(=O)N1CCC[C@H]1C(=O)N[C@@H](Cc1ccc2ccccc2c1)C(=O)C(F)(F)F)C(C)C"
assay_endpoint = "concentration at 1 h"
measured_result = 2700

[[record]]
smiles_input = "Cc1noc(C)c1C(=O)N[C@H](C(=O)N1CCC[C@H]1C(=O)N[C@@H](Cc1csc2ccccc12)C(=O)C(F)(F)F)C(C)C"
assay_endpoint = "concentration at 1 h"
measured_result = 480

[[record]]
smiles_input = "Cc1noc(C)c1C(=O)N[C@@H](C)C(=O)N1CCC[C@H]1C(=O)N[C@@H](Cc1csc2ccccc12)C(=O)C(F)(F)F"
assay_endpoint = "concentration at 1 h"
measured_result = 630

[[record]]
smiles_input = "CC[C@H](NC(=O)c1c(C)noc1C)C(=O)N1CCC[C@H]1C(=O)N[C@@H](Cc1csc2ccccc12)C(=O)C(F)(F)F"
assay_endpoint = "concentration at 1 h"
measured_result = 320


----------
Target: human chymase (Homo sapiens, UniProt P23946)
Construct: made in house; host or cells: COS7 cells (transient transfection)
Sequence (P23946 22-247): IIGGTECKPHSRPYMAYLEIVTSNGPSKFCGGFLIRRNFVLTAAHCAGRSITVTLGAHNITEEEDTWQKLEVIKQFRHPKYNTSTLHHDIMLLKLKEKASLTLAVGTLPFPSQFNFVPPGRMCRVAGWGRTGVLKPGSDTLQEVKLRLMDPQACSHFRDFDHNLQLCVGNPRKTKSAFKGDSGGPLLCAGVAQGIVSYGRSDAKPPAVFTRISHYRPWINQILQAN
Assay: Human chymase inhibitory activity (in vitro, angiotensin I substrate)
Assay type: biochemical
Conditions: recombinant human chymase (COS7 cells); substrate angiotensin I; 37° C.; read-out: Human Chymase Inhibition (IC50:nM)
Counter-ions that a name gives are not always drawn.
IC50 overview
Assay endpoint: IC50 (nM)

[[record]]
molecule = "CNC1CCN(C(=O)N[C@H](C(=O)N2CCC[C@H]2C(=O)N[C@@H](Cc2ccccc2)C(=O)C(F)(F)F)C(C)C)CC1 [Reference compound (A), hydrochloride, reference compound]"
measured_result = 1200

[[record]]
molecule = "Cc1noc(C)c1C(=O)N[C@H](C(=O)N1CCC[C@H]1C(=O)N[C@@H](Cc1csc2ccccc12)C(=O)C(F)(F)F)C(C)C"
measured_result = 55

[[record]]
molecule = "Cc1nnsc1C(=O)N[C@H](C(=O)N1CCC[C@H]1C(=O)NC(Cc1ccccc1)C(=O)C(F)(F)F)C(C)C (stereo partly shown)"
measured_result = 77

[[record]]
molecule = "CC(C)[C@H](NC(=O)c1ccc2nonc2c1)C(=O)N1CCC[C@H]1C(=O)NC(Cc1cc2ccccc2s1)C(=O)C(F)(F)F (stereo partly shown)"
measured_result = 95


----------
log10(IC50) overview
Molecular target: monkey chymase (Macaca fascicularis, UniProt P56435)
Construct: chymase was extracted from homogenized monkey cheek pouch and stomach; from tissue; host or cells: monkey cheek pouch and stomach
Sequence (P56435 22-247): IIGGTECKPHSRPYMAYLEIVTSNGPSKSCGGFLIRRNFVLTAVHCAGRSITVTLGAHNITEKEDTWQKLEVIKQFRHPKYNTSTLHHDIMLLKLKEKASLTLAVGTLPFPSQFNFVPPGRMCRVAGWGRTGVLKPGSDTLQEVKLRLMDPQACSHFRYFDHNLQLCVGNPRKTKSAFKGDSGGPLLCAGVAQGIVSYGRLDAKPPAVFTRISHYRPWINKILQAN
Test: Monkey chymase inhibitory activity (in vitro, angiotensin I substrate)
Assay type: biochemical
Conditions: chymase purified from monkey cheek pouch and stomach; substrate angiotensin I; 37° C.; read-out: Monkey Chymase Inhibition (IC50:nM)
Assay endpoint: log10(IC50) (log10 of the value in nM)

[[record]]
molecule = "CC(C)[C@H](NC(=O)c1ccc2c(c1)no[n+]2[O-])C(=O)N1CCC[C@H]1C(=O)NC(Cc1ccc2ccccc2c1)C(=O)C(F)(F)F (some centres unmarked)"
measured_result = 1.49

[[record]]
molecule = "Cc1nc(C)c(C(=O)N[C@H](C(=O)N2CCC[C@H]2C(=O)NC(Cc2csc3ccccc23)C(=O)C(F)(F)F)C(C)C)o1 (some centres unmarked)"
measured_result = 1.99

[[record]]
molecule = "Cc1onc(-c2ccccc2)c1C(=O)N[C@H](C(=O)N1CCC[C@H]1C(=O)NC(Cc1csc2ccccc12)C(=O)C(F)(F)F)C(C)C (some centres unmarked)"
measured_result = 1.53

[[record]]
molecule = "CC(C)[C@H](NC(=O)CN1CCN(CC(=O)OC(C)(C)C)C1=O)C(=O)N1CCC[C@H]1C(=O)NC(Cc1cc2ccccc2s1)C(=O)C(F)(F)F (some centres unmarked)"
measured_result = 2.32

[[record]]
molecule = "CC(C)[C@H](NC(=O)c1ccc2c(c1)OCO2)C(=O)N1CCC[C@H]1C(=O)NC(Cc1csc2ccccc12)C(=O)C(F)(F)F (some centres unmarked)"
measured_result = 2.00

[[record]]
molecule = "Cc1nc(C)c(C(=O)N[C@H](C(=O)N2CCC[C@H]2C(=O)NC(Cc2csc3ccccc23)C(=O)C(F)(F)F)C(C)C)s1 (some centres unmarked)"
measured_result = 1.57

[[record]]
molecule = "Cc1noc(C)c1C(=O)N[C@H](C(=O)N1CCC[C@H]1C(=O)N[C@@H](Cc1ccc2ccccc2c1)C(=O)C(F)(F)F)C(C)C"
measured_result = 1.73

[[record]]
molecule = "CC[C@H](NC(=O)c1c(C)noc1C)C(=O)N1CCC[C@H]1C(=O)NC(Cc1ccc2ccccc2c1)C(=O)C(F)(F)F (some centres unmarked)"
measured_result = 1.70

[[record]]
molecule = "CC[C@H](NC(=O)c1c(C)noc1C)C(=O)N1CCC[C@H]1C(=O)N[C@@H](Cc1csc2ccccc12)C(=O)C(F)(F)F"
measured_result = 0.97

[[record]]
molecule = "CC(C)[C@H](NC(=O)c1onc2cccnc12)C(=O)N1CCC[C@H]1C(=O)NC(Cc1csc2ccccc12)C(=O)C(F)(F)F (some centres unmarked)"
measured_result = 2.15

[[record]]
molecule = "Cc1noc(C)c1C(=O)N[C@H](C(=O)N1CCC[C@H]1C(=O)NC(CC1CCCCC1)C(=O)C(F)(F)F)C(C)C (some centres unmarked)"
measured_result = 2.04

[[record]]
molecule = "Cc1noc(C)c1C(=O)N[C@H](C(=O)N1CCC[C@H]1C(=O)NC(Cc1c[nH]c2ccccc12)C(=O)C(F)(F)F)C(C)C (some centres unmarked)"
measured_result = 1.89

[[record]]
molecule = "Cc1nnsc1C(=O)N[C@H](C(=O)N1CCC[C@H]1C(=O)NC(Cc1cc2ccccc2s1)C(=O)C(F)(F)F)C(C)C (some centres unmarked)"
measured_result = 1.77

[[record]]
molecule = "Cc1nnsc1C(=O)N[C@H](C(=O)N1CCC[C@H]1C(=O)NC(Cc1ccc2ccccc2c1)C(=O)C(F)(F)F)C(C)C (some centres unmarked)"
measured_result = 1.57

[[record]]
molecule = "CC(C)[C@H](NC(=O)c1ccnc2ccccc12)C(=O)N1CCC[C@H]1C(=O)NC(Cc1csc2ccccc12)C(=O)C(F)(F)F (some centres unmarked)"
measured_result = 1.67

[[record]]
molecule = "Cc1noc(C)c1C(=O)N[C@H](C(=O)N1CCC[C@H]1C(=O)NC(Cc1ccccc1Cl)C(=O)C(F)(F)F)C(C)C (some centres unmarked)"
measured_result = 2.08

[[record]]
molecule = "CC(C)[C@H](NC(=O)c1cccs1)C(=O)N1CCC[C@H]1C(=O)NC(Cc1csc2ccccc12)C(=O)C(F)(F)F (some centres unmarked)"
measured_result = 2.15

[[record]]
molecule = "CC(C)[C@H](NC(=O)c1ccc2nonc2c1)C(=O)N1CCC[C@H]1C(=O)NC(Cc1cc2ccccc2s1)C(=O)C(F)(F)F (some centres unmarked)"
measured_result = 1.67

[[record]]
molecule = "Cc1noc(C)c1C(=O)N[C@H](C(=O)N1CCC[C@H]1C(=O)NC(Cc1cccc2ccccc12)C(=O)C(F)(F)F)C(C)C (some centres unmarked)"
measured_result = 1.91

[[record]]
molecule = "CC(C)[C@H](NC(=O)c1nsc(Cl)c1Cl)C(=O)N1CCC[C@H]1C(=O)NC(Cc1csc2ccccc12)C(=O)C(F)(F)F (some centres unmarked)"
measured_result = 2.58

[[record]]
molecule = "Cc1nnsc1C(=O)N[C@H](C(=O)N1CCC[C@H]1C(=O)NC(Cc1ccc2c(c1)CCC2)C(=O)C(F)(F)F)C(C)C (some centres unmarked)"
measured_result = 2.18

[[record]]
molecule = "CC(C)[C@H](NC(=O)CN1CCN(CC(=O)O)C1=O)C(=O)N1CCC[C@H]1C(=O)NC(Cc1cc2ccccc2s1)C(=O)C(F)(F)F (some centres unmarked)"
measured_result = 1.88

[[record]]
molecule = "CC(C)[C@H](NC(=O)Cn1ccc(=O)n(CC(=O)O)c1=O)C(=O)N1CCC[C@H]1C(=O)NC(Cc1ccccc1)C(=O)C(F)(F)F (some centres unmarked)"
measured_result = 1.83

[[record]]
molecule = "Cc1cn(CC(=O)N[C@H](C(=O)N2CCC[C@H]2C(=O)NC(Cc2cc3ccccc3s2)C(=O)C(F)(F)F)C(C)C)c(=O)n(Cc2ccccc2)c1=O (some centres unmarked)"
measured_result = 2.30

[[record]]
molecule = "Cc1nnsc1C(=O)N[C@H](C(=O)N1CCC[C@H]1C(=O)N[C@@H](Cc1csc2ccccc12)C(=O)C(F)(F)F)C(C)C"
measured_result = 0.71

[[record]]
molecule = "CC(C)[C@H](NC(=O)Cn1ccc(=O)n(CC(=O)OC(C)(C)C)c1=O)C(=O)N1CCC[C@H]1C(=O)NC(Cc1ccc(Cl)cc1)C(=O)C(F)(F)F (some centres unmarked)"
measured_result = 2.45

